protocol-summary: Phase 1 first-in-human study, plasma pharmacokinetics
Assay type: in vivo
protocol-conditions: male, human, plasma, po, 36 mg, single 36 mg oral solution, male fasted
parameter-measured: Cmax (ng/mL)
Answers are plain numbers, in ng/mL.

Recall and state the measured Cmax for C=CC(=O)N[C@H]1CCC[C@H]1NC(=O)c1sc2nccc3c2c1NC(=O)N3c1cnc(CC(C)C)cc1C (atropisomer, axis not shown) .
200

###

protocol-summary: Phase 1 first-in-human study, plasma pharmacokinetics
Assay type: in vivo
protocol-conditions: male, human, plasma, po, 4 mg, single 4 mg oral solution, male fasted
parameter-measured: Cmax
Answer format: value, then unit.

Recall and state the measured Cmax for C=CC(=O)N[C@H]1CCC[C@H]1NC(=O)c1sc2nccc3c2c1NC(=O)N3c1cnc(CC(C)C)cc1C (atropisomer, axis not shown) .
43.5 ng/mL

###

protocol-summary: Phase 1 first-in-human study, plasma pharmacokinetics
Assay type: in vivo
protocol-conditions: male, human, plasma, po, 12 mg, single 12 mg oral solution, male fasted; read-out: t1/2, λz (converted)
parameter-measured: half-life

Recall and state the measured half-life for C=CC(=O)N[C@H]1CCC[C@H]1NC(=O)c1sc2nccc3c2c1NC(=O)N3c1cnc(CC(C)C)cc1C (atropisomer, axis not shown) [compound of Formula (III)] .
1.6 h

###

protocol-summary: Intestinal microsomal stability
Type: in vitro ADME
protocol-conditions: Sprague Dawley, rat, intestinal microsomes
parameter-measured: microsomal CLint

Recall and state the measured microsomal CLint for C=CC(=O)N[C@H]1CCC[C@H]1NC(=O)c1sc2nccc3c2c1NC(=O)N3c1cnc(CC(C)C)cc1C (atropisomer, axis not shown) .
< 3.9 µL/min/mg

###

protocol-summary: Phase 1 first-in-human study, plasma pharmacokinetics
Type: in vivo
protocol-conditions: male, human, plasma, po, 4 mg, single 4 mg oral solution, male fasted; read-out: AUC0-24 h
parameter-measured: AUC(0-t) (ng·h/mL)
One number for each entry, in ng·h/mL.

Recall and state the measured AUC(0-t) for C=CC(=O)N[C@H]1CCC[C@H]1NC(=O)c1sc2nccc3c2c1NC(=O)N3c1cnc(CC(C)C)cc1C (atropisomer, axis not shown) .
157

###

protocol-summary: Phase 1 first-in-human study, plasma pharmacokinetics
Type: in vivo
protocol-conditions: male, human, plasma, po, 400 mg, single 400 mg oral solution, male fasted
parameter-measured: Cmax (µg/mL)
Answers are plain numbers, in µg/mL.

Recall and state the measured Cmax for C=CC(=O)N[C@H]1CCC[C@H]1NC(=O)c1sc2nccc3c2c1NC(=O)N3c1cnc(CC(C)C)cc1C (atropisomer, axis not shown) [compound of Formula (III)] .
1.92

###

protocol-summary: Phase 1 first-in-human study, plasma pharmacokinetics
Assay type: in vivo
protocol-conditions: female, human, plasma, po, 100 mg, single 100 mg oral solution, female fasted
parameter-measured: Cmax

Recall and state the measured Cmax for C=CC(=O)N[C@H]1CCC[C@H]1NC(=O)c1sc2nccc3c2c1NC(=O)N3c1cnc(CC(C)C)cc1C (atropisomer, axis not shown) .
0.65 µg/mL

###

protocol-summary: Phase 1 first-in-human study, plasma pharmacokinetics
Assay type: in vivo
protocol-conditions: both sexes, human, plasma, po, 100 mg, 100 mg QD oral solution, fed, Day 10; read-out: t1/2, dom (converted)
parameter-measured: half-life
Answer format: value, then unit.

Recall and state the measured half-life for C=CC(=O)N[C@H]1CCC[C@H]1NC(=O)c1sc2nccc3c2c1NC(=O)N3c1cnc(CC(C)C)cc1C (atropisomer, axis not shown) .
1.8 h

###

protocol-summary: Phase 1 first-in-human study, plasma pharmacokinetics
Format: in vivo
protocol-conditions: both sexes, human, plasma, oral, Part 2, day 1, 36-200 mg QD; read-out: median tmax across doses
parameter-measured: Tmax

Recall and state the measured Tmax for C=CC(=O)N[C@H]1CCC[C@H]1NC(=O)c1sc2nccc3c2c1NC(=O)N3c1cnc(CC(C)C)cc1C (atropisomer, axis not shown) .
1.25 to 1.77 h

###

assayed-system: CYP3A4 (Homo sapiens, UniProt P08684)
Construct: with specific CYP probe substrates in human liver microsomes; from tissue; host or cells: human liver microsomes
Sequence (P08684 whole entry): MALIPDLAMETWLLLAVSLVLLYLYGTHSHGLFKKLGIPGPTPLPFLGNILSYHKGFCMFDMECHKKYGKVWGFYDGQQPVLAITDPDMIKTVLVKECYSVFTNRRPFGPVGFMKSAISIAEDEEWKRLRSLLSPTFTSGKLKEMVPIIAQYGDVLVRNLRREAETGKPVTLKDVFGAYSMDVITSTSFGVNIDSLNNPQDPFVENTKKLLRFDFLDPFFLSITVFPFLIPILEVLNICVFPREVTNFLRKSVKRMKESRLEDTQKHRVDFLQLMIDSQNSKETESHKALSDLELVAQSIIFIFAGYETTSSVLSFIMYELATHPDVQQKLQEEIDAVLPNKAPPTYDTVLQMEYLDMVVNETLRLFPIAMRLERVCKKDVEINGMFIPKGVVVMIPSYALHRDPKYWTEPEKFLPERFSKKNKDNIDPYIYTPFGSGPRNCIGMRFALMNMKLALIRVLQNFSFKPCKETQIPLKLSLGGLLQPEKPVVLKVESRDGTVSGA
protocol-summary: CYP inhibition in human liver microsomes
Format: in vitro ADME
protocol-conditions: probe Testosterone
parameter-measured: pIC50
Give bare numbers, as −log10 of the molar value.

Recall and state the measured pIC50 for C=CC(=O)N[C@H]1CCC[C@H]1NC(=O)c1sc2nccc3c2c1NC(=O)N3c1cnc(CC(C)C)cc1C (atropisomer, axis not shown) .
4.40

###

assayed-system: UniProt:P35367
Sequence (P35367 whole entry): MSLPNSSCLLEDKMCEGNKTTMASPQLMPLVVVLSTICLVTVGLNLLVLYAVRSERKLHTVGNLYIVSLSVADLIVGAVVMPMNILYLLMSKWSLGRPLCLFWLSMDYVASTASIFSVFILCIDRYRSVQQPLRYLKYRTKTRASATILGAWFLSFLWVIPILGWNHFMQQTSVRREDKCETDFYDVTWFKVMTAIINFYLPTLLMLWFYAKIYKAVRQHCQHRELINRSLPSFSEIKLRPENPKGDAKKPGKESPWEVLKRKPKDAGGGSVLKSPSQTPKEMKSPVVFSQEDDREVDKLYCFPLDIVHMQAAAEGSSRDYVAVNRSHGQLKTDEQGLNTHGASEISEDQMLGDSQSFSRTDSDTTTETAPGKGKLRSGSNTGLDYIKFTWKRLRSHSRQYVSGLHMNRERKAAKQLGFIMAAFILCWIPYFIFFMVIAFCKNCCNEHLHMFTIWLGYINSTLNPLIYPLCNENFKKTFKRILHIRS
protocol-summary: Receptor panel, Study 3 (agonist/antagonist)
Format: biochemical
protocol-conditions: n = 2; read-out: Antagonist IC50
pIC50: −log10 of the molar value.
parameter-measured: pIC50

Recall and state the measured pIC50 for C=CC(=O)N[C@H]1CCC[C@H]1NC(=O)c1sc2nccc3c2c1NC(=O)N3c1cnc(CC(C)C)cc1C (atropisomer, axis not shown) [compound of Formula (III)] .
< 5.00

###

protocol-summary: Metabolic stability in liver microsomes
Type: in vitro ADME, human
protocol-conditions: human, liver microsomes; read-out: T1/2, liver microsomes
parameter-measured: half-life (min)
Give bare numbers, in min.

Recall and state the measured half-life for C=CC(=O)N[C@H]1CCC[C@H]1NC(=O)c1sc2nccc3c2c1NC(=O)N3c1cnc(CC(C)C)cc1C (atropisomer, axis not shown) .
22.3

###

protocol-summary: Preclinical PK, oral and IV
protocol-conditions: dog, in vivo, iv; read-out: Vss
parameter-measured: Vd (L/kg)
Give bare numbers, in L/kg.

Recall and state the measured Vd for C=CC(=O)N[C@H]1CCC[C@H]1NC(=O)c1sc2nccc3c2c1NC(=O)N3c1cnc(CC(C)C)cc1C (atropisomer, axis not shown) [compound of Formula (III)] .
0.8

###

protocol-summary: Preclinical PK, oral and IV
Format: in vivo, monkey
protocol-conditions: monkey, in vivo, iv
parameter-measured: clearance (mL/min/kg)
Give bare numbers, in mL/min/kg.

Recall and state the measured clearance for C=CC(=O)N[C@H]1CCC[C@H]1NC(=O)c1sc2nccc3c2c1NC(=O)N3c1cnc(CC(C)C)cc1C (atropisomer, axis not shown) .
3.1

###

protocol-summary: Caco-2 permeability
Type: in vitro ADME
protocol-conditions: human; Caco-2, 5 μM
parameter-measured: Papp A→B at 5 μM (×10⁻⁶ cm/s)
Answers are plain numbers, in ×10⁻⁶ cm/s.

| compound | Papp A→B at 5 μM [×10⁻⁶ cm/s] |
| --- | --- |
| CC(C)NCC(O)COc1cccc2ccccc12 (centres unmarked) [Propranolol, reference compound] | 31.6 |

Recall and state the measured Papp A→B at 5 μM for C=CC(=O)N[C@H]1CCC[C@H]1NC(=O)c1sc2nccc3c2c1NC(=O)N3c1cnc(CC(C)C)cc1C (atropisomer, axis not shown) [compound of Formula (III)] .
6.69

###

protocol-summary: Phase 1 first-in-human study, plasma pharmacokinetics
Type: in vivo
protocol-conditions: female, human, plasma, po, 100 mg, single 100 mg oral solution, female fasted
parameter-measured: AUC(0-inf) (µg·h/mL)
One number for each entry, in µg·h/mL.

Recall and state the measured AUC(0-inf) for C=CC(=O)N[C@H]1CCC[C@H]1NC(=O)c1sc2nccc3c2c1NC(=O)N3c1cnc(CC(C)C)cc1C (atropisomer, axis not shown) .
1.34

###

protocol-summary: Phase 1 first-in-human study, plasma pharmacokinetics
Type: in vivo
protocol-conditions: both sexes, human, plasma, po, 200 mg, 200 mg QD oral solution, fed, Day 10; read-out: tmax, median (min-max)
parameter-measured: Tmax (h)
One number for each entry, in h.

Recall and state the measured Tmax for C=CC(=O)N[C@H]1CCC[C@H]1NC(=O)c1sc2nccc3c2c1NC(=O)N3c1cnc(CC(C)C)cc1C (atropisomer, axis not shown) .
2

###

protocol-summary: Phase 1 first-in-human study, plasma pharmacokinetics
Assay type: in vivo
protocol-conditions: male, human, plasma, po, 100 mg, single 100 mg oral solution, male fed (high-fat breakfast); read-out: t1/2, λz (converted)
parameter-measured: half-life
Answer format: value, then unit.

Recall and state the measured half-life for C=CC(=O)N[C@H]1CCC[C@H]1NC(=O)c1sc2nccc3c2c1NC(=O)N3c1cnc(CC(C)C)cc1C (atropisomer, axis not shown) [compound of Formula (III)] .
10.8 h

###

protocol-summary: Phase 1 first-in-human study, plasma pharmacokinetics
Assay type: in vivo
protocol-conditions: male, human, plasma, po, 100 mg, single 100 mg oral solution, male fed (high-fat breakfast)
parameter-measured: AUC(0-inf) (ng·h/mL)
Give bare numbers, in ng·h/mL.

Recall and state the measured AUC(0-inf) for C=CC(=O)N[C@H]1CCC[C@H]1NC(=O)c1sc2nccc3c2c1NC(=O)N3c1cnc(CC(C)C)cc1C (atropisomer, axis not shown) .
1760

###

protocol-summary: Intestinal microsomal stability
Assay type: in vitro ADME
protocol-conditions: human, intestinal microsomes
parameter-measured: microsomal CLint (µL/min/mg)
Numbers only, in µL/min/mg.

Recall and state the measured microsomal CLint for C=CC(=O)N[C@H]1CCC[C@H]1NC(=O)c1sc2nccc3c2c1NC(=O)N3c1cnc(CC(C)C)cc1C (atropisomer, axis not shown) .
14.1
